Target: T1, PUF4 RNA-binding domain (Saccharomyces cerevisiae, UniProt P25339 537-888)
T1 sequence: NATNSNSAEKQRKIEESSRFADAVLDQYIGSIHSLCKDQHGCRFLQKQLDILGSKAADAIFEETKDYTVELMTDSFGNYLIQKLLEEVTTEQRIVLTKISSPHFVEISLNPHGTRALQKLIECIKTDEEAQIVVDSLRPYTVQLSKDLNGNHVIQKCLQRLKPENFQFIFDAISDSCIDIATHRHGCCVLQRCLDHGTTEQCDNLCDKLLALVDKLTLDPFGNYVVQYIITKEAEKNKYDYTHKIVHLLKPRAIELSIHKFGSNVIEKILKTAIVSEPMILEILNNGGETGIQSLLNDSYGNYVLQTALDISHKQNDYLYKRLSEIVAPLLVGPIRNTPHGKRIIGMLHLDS
Test: Mg; RNA-MaP; 20 mM Na-HEPES pH 7.4, 30 mM KOAc, 0.75 mM MgCl2, 0.1% Tween-20, 5% glycerol, 0.1 mg/mL BSA, 2 mM DTT; 25 C; 0.0125-409.6 nM protein
Conditions: tags: N-His6-TEV cleaved; C-SNAP kept, Cy3B-labelled; label: tethered on chip by stalled RNA polymerase
Assign labels as follows, please: satisfied for Kd below 20 nM; not satisfied for Kd equal to or exceeding 20 nM.

Strictly below 20 nM: is that where Kd of Id_ii_S2_P5E.4_K5.3_C5.2_[T-1A]_H5.3_A5.1_F5.1_T5.2_[T11C]_[A12G] (ssRNA) RNA: UUUGAUUAAUAUGAUAUCGUUCUUUCUCAACACUUAUUACGUUCUUUCUCGAUAUCAUAUUAAUCUUU sits? not satisfied

Threshold test, Kd < 20 nM: UCUCUUUGUAUGCAGUUCUCUU (ssRNA) [Ic_S1_P5E.1_K5.1_C5.1_H5.1_A5.1_[T6G]_[A7C]_F5.1_[T8A]_[T9G]_[A10T]_T5.1] not satisfied

# check: Kd < 20 nM for Ic_S2_P4E.1_K4.1_C4.1_H4.1_A4.1_[T5G]_[A6T]_F4.1_[T8C]_[A9C]_T4.1 (ssRNA) RNA: UUUGAUUAAUAUGAUAUCGUUCUUUCUUGUAGUUCCUUCUUUCUCGAUAUCAUAUUAAUCUUU not satisfied

Lab note: confirm whether the reported Kd for this binder is below 20 nM, equality not counting. binder: Ib_S2_P5E.1_K5.1_C5.1_H5.1_A5.1_[A7T]_F5.1_[A10G]_T5.1 (ssRNA) RNA: UUUGAUUAAUAUGAUAUCGUUCUUUCUUGUAUUUUUGUUCUUUCUCGAUAUCAUAUUAAUCUUU satisfied

Does the reported Kd of the following binder sit strictly below 20 nM? UCUCUUUGUACAUGUCUCUU (ssRNA) [Ic_S1_P3E.1_K3.1_C3.1_H3.1_A3.1_[T5C]_F3.1_[A8G]_T3.1] not satisfied
